- Test system: KB
- protocol: Growth inhibitory activity (antiproliferative) against KB/7d cell lines
- Type: functional, cell-based
- experimental-conditions: Homo sapiens
Task for the reader: assign each of the following compounds its reported IC50.
Express it in µM; write the number only.

input: Notebook entry, KB assay: IC50 of COc1cc([C@@H]2c3cc4nc5ccccc5nc4cc3[C@H](O)[C@H]3COC(=O)[C@H]23)cc(OC)c1OC = ?
output: 6.21

input: Checklist item: IC50 tested on KB, entry COc1cc([C@@H]2c3cc(O)c(O)cc3[C@@H](Nc3ccc([N+](=O)[O-])cc3)[C@H]3COC(=O)[C@H]23)cc(OC)c1O , value?
output: 16.6

input: Reported IC50 for KB, given COc1cc([C@@H]2c3cc4nc5cc(Cl)c(Cl)cc5nc4cc3[C@H](O)[C@H]3COC(=O)[C@H]23)cc(OC)c1OC ?
output: 9.2

input: Please state recorded IC50 (tested on KB) of COc1cc([C@@H]2c3cc4c(cc3[C@@H](O[C@@H]3O[C@@H]5CO[C@@H](C)O[C@H]5[C@H](O)[C@H]3O)[C@H]3COC(=O)[C@H]23)OCO4)cc(OC)c1O [ETOPOSIDE]
output: 23.8

input: Missing value: IC50, KB, entry COc1cc([C@@H]2c3cc4nc5ccccc5nc4cc3[C@@H](Nc3ccc([N+](=O)[O-])cc3)[C@H]3COC(=O)[C@H]23)cc(OC)c1O . Fill in?
output: 0.56

input: What measured IC50 is associated with COc1cc([C@@H]2c3cc4nc5cc(Cl)c(Cl)cc5nc4cc3[C@@H](Nc3ccc([N+](=O)[O-])cc3)[C@H]3COC(=O)[C@H]23)cc(OC)c1O on KB?
output: 10.6

input: For KB, provide IC50 of COc1cc([C@@H]2c3cc4c(cc3[C@@H](Nc3ccc([N+](=O)[O-])cc3)[C@H]3COC(=O)[C@H]23)OCO4)cc(OC)c1O please.
output: 0.55

----------
- Test system: Nucleic Acid
- protocol: Stimulation of in vitro Topoisomerase II-Linked DNA Complex Formation and Interference with Etoposide-Induced Cleavage at concentration 50 uM
- Format: functional
assay-endpoint: cpm
Lab note: record just the number, no unit beside it.

input: Recorded cpm for COc1cc([C@@H]2c3cc(O)c(O)cc3[C@@H](Nc3ccc([N+](=O)[O-])cc3)[C@H]3COC(=O)[C@H]23)cc(OC)c1O , please?
output: 661

input: Which cpm is listed for COc1cc([C@@H]2c3cc4c(cc3[C@@H](Nc3ccc([N+](=O)[O-])cc3)[C@H]3COC(=O)[C@H]23)OCO4)cc(OC)c1O ?
output: 2930

input: Reported cpm, compound COc1cc([C@@H]2c3cc4nc5ccccc5nc4cc3[C@@H](Nc3ccc([N+](=O)[O-])cc3)[C@H]3COC(=O)[C@H]23)cc(OC)c1O : ____
output: 309

input: # input compound: COc1cc([C@@H]2c3cc4c(cc3[C@@H](O[C@@H]3O[C@@H]5CO[C@@H](C)O[C@H]5[C@H](O)[C@H]3O)[C@H]3COC(=O)[C@H]23)OCO4)cc(OC)c1O [ETOPOSIDE] ; wanted: its cpm
output: 2460

input: For the compound COc1cc([C@@H]2c3cc4nc5cc(Cl)c(Cl)cc5nc4cc3[C@@H](Nc3ccc([N+](=O)[O-])cc3)[C@H]3COC(=O)[C@H]23)cc(OC)c1O , what cpm is on record?
output: 103
